This listing pairs binders with measured Average exchange yield in %.
Target: T1, HLA-A*0201 (human)
T1 construct: MHC monomer first loaded with a UV-sensitive peptide that is cleaved and exchanged for the test peptide; captured on streptavidin; also called peptide-receptive MHC molecules
Test: UV-ligand exchange, streptavidin/anti-b2m sandwich ELISA
Text: Candidate peptides for the vaccines according to the present invention were further tested for immunogenicity by in vitro priming assays. The individual peptide-MHC complexes required for these assays were produced by UV-ligand exchange, where a UV-sensitive peptide is cleaved upon UV-irradiation, and exchanged with the peptide of interest as analyzed. Only peptide candidates that can effectively bind and stabilize the peptide-receptive MHC molecules prevent dissociation of the MHC complexes. […]
Only the number, expressed in %, is required.

KVLEILHRV (synthetic peptide from HERC4) [HERC4-001] | 61
RLLDSVSRL (synthetic peptide from LAMC2) [LAMC2-001] | 61
GLAEDIDKGEV (synthetic peptide from EEF2) [EEF2-002] | 31

Reported Average exchange yield in % for FLIPIYHQV (synthetic peptide from ACACA) [ACACA-001] was 61

Reported Average exchange yield in % for HLLEDIAHV (synthetic peptide from NEFH) [NEFH-001] was 50

Reported Average exchange yield in % for SMSGYDQVL (synthetic peptide from HNRNPH1, HNRNPH2) [HNRNPH-001] was 26

Reported Average exchange yield in % for AIMGFIGFFV (synthetic peptide from SEC61G) [SEC61G-001] was 18

Reported Average exchange yield in % for ALDENLHQL (synthetic peptide from ABCA13) [ABCA13-002] was 36

meta.source: patent US20250066422A1
